tested on: NOMO1; experiment: cell viability relative to DMSO control; higher = less cytotoxic; details: RPMI 5 mM glucose + 10% dialyzed FBS; 48 h; 0.000781 µM
TEST_READOUT: cell viability
Remember to quote the unit after the number.

The examples below pair each entry with its known result.
Form field cell viability, entry COC1=CC=C(C=C1)C2CC(=N/N2C3=CC=C(C=C3)[S+](N)([O-])=O)\C4=CC=CC=C4 (configuration not stated) : 82.7%

O=C1N\2CCC3=C([NH]C4=C3C=CC=C4)C2=N/C5=CC=CC=C15 has a reported cell viability of 115%

// sample C[N+](C)([O-])CCNc1ccc(NCC[N+](C)(C)[O-])c2c1C(=O)c1c(O)ccc(O)c1C2=O , its cell viability was 90.3%

Hi there! I need cell viability for each item below, if you can.
1. CC[C@@]1(O)C[C@H](O[C@H]2C[C@H](N(C)C)[C@H](O[C@H]3C[C@H](O)[C@H](O[C@H]4CCC(=O)[C@H](C)O4)[C@H](C)O3)[C@H](C)O2)c2c(cc3c(c2O)C(=O)c2c(O)cccc2C3=O)[C@H]1C(=O)OC
2. CN(C)CCCNC(=O)c1ccc(-c2cc(O)c3ncccc3c2)cc1

**Result**
1: 91.5%; 2: 96.3%

// input: 2 compounds below; output: cell viability for each
1. Cc1ccc(-c2ncn(-c3ccc(Nc4nccc(-c5cccc(N6CCOCC6)c5)n4)cc3)n2)cn1
2. COC[C@H]1OC(=O)C2=COC3=C2[C@@]1(C)\C4=C(\[C@@H]5CC[C@H](O)[C@@]5(C)C[C@H]4OC(C)=O)C3=O

**Result**
1: 87.7%; 2: 88.2%

----------
test system: SEM cells; assay: cell viability relative to DMSO control; higher = less cytotoxic; settings: RPMI 5 mM glucose + 10% FBS; 48 h; 0.0632 µM
TEST_READOUT: cell viability (%)
Numbers only, in %.

# count of solved cases: 2
Field cell viability (entry CCNC(=O)[C@H]1O[C@@H](n2cnc3c(N)nc(NCCc4ccc(CCC(=O)O)cc4)nc32)[C@H](O)[C@@H]1O ) reads 103

Summary for this molecule, Cc1cc(Cl)ccc1OCCCC(=O)NO : cell viability is 112

More entries:
The molecule identified as CO[C@H]1C[C@@H]2CC[C@@H](C)[C@@](O)(O2)C(=O)C(=O)N2CCCC[C@H]2C(=O)O[C@H]([C@H](C)C[C@@H]2CC[C@@H](OCCO)[C@H](OC)C2)CC(=O)[C@H](C)/C=C(/C)[C@@H](O)[C@@H](OC)C(=O)[C@H](C)C[C@H](C)\C=C/C=C\C=C/1C registered its cell viability at 75

----------
tested on: P12-Ichikawa; assay: cell viability relative to DMSO control; higher = less cytotoxic; details: RPMI 5 mM glucose + 10% FBS; 48 h; 1.71 µM
TEST_READOUT: cell viability (%)
Give bare numbers, in %.

List reported cell viability for each of these molecules:
1. COc1ccc2c(c1OC)CN1CCc3cc4c(cc3C1C2)OCO4 (stereo not given)
2. CN(C)c1ccc2cc(C(=O)N[C@@H](CCCNC(=N)CCl)C(=O)NCc3ccccc3)ccc2c1

**Result**
53.6
116

Could I get cell viability for every one of these entries?
1. CN[S+](=O)([O-])CCc1ccc2[nH]cc(C3CCN(C)CC3)c2c1
2. CC(C)[C@H](CO)Nc1nc(Nc2cccc(Cl)c2)c2ncn(C(C)C)c2n1
3. CN(C)CCCNC(=O)c1ccc(-c2cc(O)c3ncccc3c2)cc1
4. COc1cccc2c1C(=O)c1c(O)c3c(c(O)c1C2=O)C[C@@](O)(C(C)=O)C[C@@H]3O[C@H]1C[C@H](N)[C@H](O)[C@H](C)O1

**Result**
[107, 118, 95.5, 7.61]

Provide each entry's cell viability from the list below.
1. Cc1cc(O)c2c(c1)C(=O)c1cc(O)cc(O)c1C2=O
2. O=c1[nH]cnc2c1ncn2[C@H]1CC[C@@H](CO)O1
3. CN(C)C[C@@H]1CC[N]2C=C(C3=C2C=CC=C3)C/4=C(/C(=O)NC4=O)C5=C[N](CCO1)C6=C5C=CC=C6
4. Cc1c(C(=O)Nc2cccc(C(F)(F)F)c2)cc(-c2ccccc2)n1CCCN1CCOCC1
5. OCCCNc1cc(-c2ccnc(Nc3cccc(Cl)c3)n2)ccn1

**Result**
103
108
96.2
108
12.1
